Values compiled from PubChem BioAssay AID1159580.

Quick reference for normalized growth among some compounds
# assay.remarks: chemical genetic growth profiling, strain panel (AID 1159580);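 further: tested at 20 µM; growth read once vehicle control cultures reached saturation at 30 °C; 1 = growth at the plate median or of vehicle wells; lower values mean less growth of the strain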
# condition.notes: S. cerevisiae deletion strains, growth OD, locus YNL183C, strain NPR1, stronger effect = lower value
The campaign covered roughly 5,500 compounds. About 2,000 (36%) were called active. Another 18% or so got no clear call; they are omitted. The list shows a part of the results.
// print number alone

Some solved entries appear below for comparison.
Which normalized growth value is on record for `C=CC(=O)N1CCc2cc([N+](=O)[O-])ccc21` ?
0.22

Fill in the blank: the reported normalized growth of O=C(O)C1CC([C@@H]2CCCCN2)CN2CCCCC12 (stereo not given in full) is ____.
0.97

Quick check: normalized growth of CC(C)CC1C(=O)N2CCC[C@H]2C2(O)O[C@](NC(=O)C3C=C4c5cccc6[nH]c(Br)c(c56)C[C@H]4N(C)C3)(C(C)C)C(=O)N12 (stereo not given in full) ?
0.938

Sample C=C1CC2C3C=C(C)C4=CC(=O)CC[C@]4(C)C3CC[C@]2(C)[C@@]1(OC(C)=O)C(C)=O (stereo not given in full) — what was its normalized growth?
0.876

Reported normalized growth for CC(=O)O[C@]1(C(C)=O)CCC2C3C=C(C)C4=CC(=O)CCC4(C)C3CCC21C (stereo not given in full) : what is it?
0.939

Continuing:
Record request: normalized growth value, item `CN=C(NC#N)NCCSCc1nc[nH]c1C`
1

For the compound shown here, `CC(=O)CC(=O)CCC(=O)O` , give the reported normalized growth.
0.91
